Listing of entries alongside the reported GI50.
# Test system: CAKI-1 renal
# TEST_METHOD_NOTES: NCI tumour cell line growth inhibition, 48 h

COMPOUND	GI50
COC(C)(C)[C@@H](O)[C@H](O)C[C@H](C)C1=C2CC[C@@H]3[C@@]4(C)CC[C@@H](OC(C)=O)C(C)(C)[C@@H]4C[C@@H](OC4OC(COC(C)=O)C(O)C(O)C4O)[C@@]3(C)[C@]2(C)CC1 (some centres undefined)	4.1 µM
C=CC(=O)N1CCC(c2ccc(C(N)=O)c(-c3ccc(Oc4ccccc4)cc3)n2)CC1	15.8 µM
CN(C)c1ccc(Nc2c3ccccc3nc3ccccc23)cc1	0.486 µM
COc1ccc(-c2cc(=O)n(-c3nc4ccccc4[nH]3)[nH]2)cc1OC	4.79 µM

Request: Lab note: record GI50 of COc1ccccc1/C=C1\COc2ccc(-c3ccccc3)cc2C1=O tested on CAKI-1 renal.
Result: 4.74 µM

Request: Report value: GI50, system: CAKI-1 renal, compound: COc1c(C(C)=O)c(OCCCCOc2c(C(C)=O)c(OC)c3ccoc3c2OC)c(OC)c2occc12
Result: 3.3 µM

Request: Report GI50 under test system CAKI-1 renal for Oc1c(C(Nc2ccccc2Br)c2ccccc2)ccc2cccnc12 (centres undefined) .
Result: 1.36 µM

Request: Provide GI50, recorded with CAKI-1 renal, of c1ccc(-c2nn3c(c2-c2ccnc4cc(OCCN5CCOCC5)ccc24)CCC3)nc1
Result: 45.6 µM

Request: Under CAKI-1 renal, report GI50 for O=C(NCCN1CCOCC1)OCc1nc2nc(Cl)nc(N3CCOCC3)c2[nH]1
Result: 3.07 µM

* * *

# Test system: 786-0 renal
# TEST_METHOD_NOTES: NCI tumour cell line growth inhibition, 48 h
MEASURED_PARAMETER: TGI

COMPOUND	RESULT
CC1=NN(c2cccc(Cl)c2)C2(C1=Cc1ccc(O)cc1)C(Cl)C(=O)N2c1nc2ccccc2s1 (stereo unspecified)	80.6 µM
COc1ccc([C@H](CC(=O)O)N2CCN(CCCc3ccc4c(n3)NCCC4)C2=O)cn1	> 100 µM
COc1cc(/C=C/c2ccc(C)cc2)cc(OC)c1OC	36.6 µM
O=c1c2c([nH]c3nccn13)CCC2	> 10 µM
O=C(O)C(Cc1cnc[nH]1)N1C(=O)c2ccccc2C1=O (stereo unspecified)	> 100 µM

Request: Specify measured TGI for COC(=O)C1=C(OC(=O)/C(=C/c2ccccc2)c2ccc(OC)cc2)C(C(=O)OC)[C@@]2(O)[C@@H](C(=O)OC)[C@H](C)C[C@@H]1[C@@H]2C(=O)OC (stereo partly specified) .
Result: > 100 µM

Request: Determine its reported TGI: Cc1cc(-n2nnc(C(=O)O)c2-c2ccccc2)c2ccc(Cl)cc2n1
Result: > 100 µM

Request: Indicate the recorded TGI value for this compound: Fc1cccc(F)c1C1SCc2nc3cc(Cl)c(Cl)cc3n21 (stereo unspecified)
Result: > 100 µM

Request: Query TGI for CCOC(=O)C1CC(C(=O)c2ccccc2)N2c3ccccc3-c3ccccc3C12 (stereo unspecified)
Result: > 100 µM

Request: Indicate its recorded TGI; the compound in question is CC(C)(C)OC(=O)NC12C3C4C1C1C2C3C41NC(=O)OC(C)(C)C (stereo unspecified)
Result: > 100 µM

Request: Given the compound C[C@@H]1[C@@H](C)C(c2ccccc2)O[Si]1(C(C)(C)C)C(C)(C)C (stereo partly specified) , write its reported TGI.
Result: 29.4 µM

Request: Please give measured TGI of the following entry: CCC[CH2][Sn]([CH2]CCC)([O]C(=O)c1cc(OC)c(OC)cc1OC)[O][Sn]([CH2]CCC)([CH2]CCC)[O]C(=O)c1cc(OC)c(OC)cc1OC
Result: 0.698 µM

Request: Give the reported TGI for this compound. CCOc1ccc2c(-c3ccnc(Nc4cc(OC)cc(C(F)(F)F)c4)n3)cnn2n1
Result: > 25 µM

Request: Using known records, supply TGI for O=c1[nH]nc(-c2ccccc2)n1/N=C/c1ccc([N+](=O)[O-])o1
Result: > 31.7 µM

Request: Give a short answer stating reported TGI for N#CC(CCN1CCC(Nc2ccccc2)(c2nnnn2C2CCCCC2)CC1)(c1ccccc1)c1ccccc1 .
Result: > 100 µM

Request: Give reported TGI value for C1=C(c2ccccc2)C(N2CCOCC2)Oc2ccccc21 (stereo unspecified)
Result: > 100 µM

* * *

# Test system: SW-620 colon
# TEST_METHOD_NOTES: NCI tumour cell line growth inhibition, 48 h
MEASURED_PARAMETER: TGI

MOLECULE	ASSAY_SYSTEM	TGI
COC(=O)[C@@H]1CS(=O)(=O)C(C(C)C)N1C(C)=O (stereo not given in full)	SW-620 colon	> 100 µM

Request: Given CCCC[C@@H](C)/C=C1\CN2CCC[C@H]2[C@@](C)(OCc2ccccc2)[C@@H]1O , respond with its TGI.
Result: > 50 µM

* * *

# Test system: NCI-H522 lung
# TEST_METHOD_NOTES: NCI tumour cell line growth inhibition, 48 h
Listed here are compounds together with their documented TGI.

These recorded examples may help you get a feel for the data.
COMPOUND	TGI
CCN1C/C(=C\c2ccc(Cl)cc2)c2nc(N)c(C#N)c(-c3ccc(Cl)cc3)c2C1	> 100 µM
O=c1cccccc1[O-].O=c1cccccc1[O-].O=c1cccccc1[O-].[Eu+3]	54.8 µM
Cc1cc(C)c2c(c1)CC1(Cc3cc(C)c(C)cc3C1=O)C2=O (stereo not given)	> 100 µM
C=CCn1c(=S)sc2c(C(=O)OCC)c3c(C)cc(C)cn3c2c1=O	> 100 µM

Please find the next compound below.
Request: Give reported TGI for COC(=O)CCC(NC(=S)N/N=C(\C)c1ccc[nH]1)C(=O)OC (stereo not given) (NCI-H522 lung)
Result: > 100 µM

* * *

# System: HS 578T breast
# TEST_METHOD_NOTES: NCI tumour cell line growth inhibition, 48 h
Kind request: treat 50 µM as inclusive, so TGI at 50 µM or higher is Fulfilled, anything lower is Not fulfilled.

// known answers, use as guide
COMPOUND	LABEL_VALUE
CC1=NN(c2cccc(Cl)c2)C2(C1=Cc1ccc(O)cc1)C(Cl)C(=O)N2c1nc2ccccc2s1 (stereo not given)	Fulfilled
COc1cc(/C=C2\CC/C(=C\c3cc(OC)c(O)c(OC)c3)C2=O)cc(OC)c1O	Not fulfilled
Clc1sc(Cl)c2c1[C@@H](Cl)C[C@@H]2Cl	Fulfilled
O=C1NC(=O)c2ccccc2/C1=C/c1ccc2c(c1)OCO2	Not fulfilled
OCCCCC#Cc1ccccc1C#Cc1ccc(O)cc1	Fulfilled
C[C@H](c1ccc(Cl)cc1[N+](=O)[O-])N1C(=O)c2cc(I)ccc2N=C(OCCCN2CCN(C)CC2)[C@@H]1c1ccc(Cl)cc1	Not fulfilled

Request: Is TGI for CCN1C/C(=C\c2ccc(Cl)cc2)c2nc(N)c(C#N)c(-c3ccc(Cl)cc3)c2C1 at or above 50 µM?
Result: Fulfilled

Request: Answer whether TGI of COC(C/C(=C/CO[Si](C(C)C)(C(C)C)C(C)C)C(=O)N(COCC[Si](C)(C)C)c1ccccc1I)OC is greater than or equal to 50 µM.
Result: Fulfilled

Request: Does the compound CCCCNNC(=O)c1ccc(Br)cc1 have recorded TGI that is 50 µM or more?
Result: Fulfilled

Request: Does TGI meet or surpass 50 µM for FC(F)(F)c1cc(N(C2c3ccccc3C=Cc3ccccc32)P(Cl)Cl)cc(C(F)(F)F)c1 ?
Result: Fulfilled

* * *

# Test system: NCI-H226 lung
# TEST_METHOD_NOTES: NCI tumour cell line growth inhibition, 48 h; in the data active = GI50 below about 0.43 µM; inactive = the rest
Bench note: report the call from active, inactive

Record excerpt, results attached:
COMPOUND	ASSAY_SYSTEM	LABEL_VALUE
Nc1ccn(C2CC(F)C(CO)O2)c(=O)n1 (stereo unspecified)	NCI-H226 lung	inactive
OCCCCC#Cc1ccccc1C#Cc1ccc(O)cc1	NCI-H226 lung	inactive
C/C(=C\c1ccn(-c2ccccc2N)n1)[C@@H]1C[C@@H]2O[C@]2(C)CCC[C@H](C)[C@H](O)[C@@H](C)C(=O)C(C)(C)[C@@H](O)CC(=O)O1	NCI-H226 lung	inactive
O=[N+]([O-])c1cc[n+]([O-])c2ccccc12	NCI-H226 lung	active
Cc1ccc(/C=C/c2c(C(=O)/C=C/c3ccccc3)c(C)nc3ccccc23)cc1	NCI-H226 lung	inactive
CCCCC(SC(=S)N1CCCC1)C(=O)Nc1nc(CC(=O)OCC)cs1 (stereo unspecified)	NCI-H226 lung	inactive

Request: Can you look up the reported call for CCOc1ccc2c(-c3ccnc(Nc4cc(OC)cc(C(F)(F)F)c4)n3)cnn2n1 for me?
Result: inactive

Request: Lab log entry: NC(=N\N=C/c1ccc(O)cc1)/C(N)=N\N=C/c1ccc(O)cc1 — outcome as called in the assay?
Result: inactive

Request: For CN(C)c1ccc(Nc2c3ccccc3nc3ccccc23)cc1 , what call appears in the results of this test?
Result: inactive

Request: Would you mind telling me which call this test gave Cc1ccc(S(=O)(=O)Oc2ccc3c4c(c(=O)oc3c2)CCCCCC4)cc1 ?
Result: inactive

Request: Tell me the recorded outcome of this test for C=C1C(=O)O[C@H]2[C@H]1CC/C(COC(=O)CCCCCC(=O)OC/C1=C/CC[C@@]3(C)O[C@H]3[C@H]3OC(=O)C(=C)[C@@H]3CC1)=C\CC[C@@]1(C)O[C@@H]21 .
Result: inactive

Request: Assay outcome for Cc1ccc(/C=C(\C#N)c2cc3ccccc3n2C)cc1 : what was it?
Result: inactive
